Molecular target: T1, prostate-specific antigen (PSA), uncomplexed free PSA (Homo sapiens, UniProt P07288)
T1 construct: prostate-specific antigen (PSA), human kallikrein; uncomplexed (free) form; also called fPSA; source: bought: Merck (ELISA)
T1 sequence (P07288 25-261, one chain of several): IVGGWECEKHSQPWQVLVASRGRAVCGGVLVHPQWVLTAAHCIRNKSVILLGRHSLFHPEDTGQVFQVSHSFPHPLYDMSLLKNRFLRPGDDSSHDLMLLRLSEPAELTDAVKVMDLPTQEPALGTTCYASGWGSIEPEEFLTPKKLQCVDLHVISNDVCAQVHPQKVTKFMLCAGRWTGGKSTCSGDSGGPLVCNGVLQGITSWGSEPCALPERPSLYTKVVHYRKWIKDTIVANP
Experiment: SPR; Biacore 2000; PSA immobilised on a CM4 chip by amine coupling (900-1000 RU); antibodies at 100, 50, 25, 12.5 and 10 nM in HSP-buffer flown at 30 uL/min; association 4-5 min, dissociation up to 480 min; bi-exponential fits to binding and dissociation curves; KD = Koff/Kon
Conditions: both partners purified
observedProperty: koff (s⁻¹)
Your answer should be a plain number; it is taken to be in s⁻¹.

Lookup result for murine 5A10 monoclonal IgG1 (antibody, V domains shown, heavy chain variable domain of m5A10; murine IgG1 heavy chain constant region; light chain variable domain of m5A10; light chain constant region; Murine IgG1; also called m5A10; parental murine antibody m5A10; source: provided by the University of Turku (Finland), prepared as previously described [8]) VH: EVQLVESGPGILQPSQTLSLTCSFSGFSLSTTGMGVSWIRQPSGKGLEWLAHLYWDEDKRYNPSLKSRLTISEDSSRNQVFLKITSVGPADSATYYCARKGYYGYFDYWGQGTALTVSS VL: DIVMTQSQKFMSTSVGDRVSVTCKASQNVNTDVAWYQQKPGQSPKALIFSTSYRSSGVPDRFTGSGSGTDFTLTITNVQSEDLAEYFCQQYSNYPLTFGAGTKVDLN ; measured koff: 5.4e-06
